Data credit: the supplement of paper PMC11208160

Reported recombinant barcode read abundance (log10) by item:
test: recombinant barcode read abundance after kanamycin selection (control-corrected) (log10(CPM+1)); higher = more efficient recombination; sequences stand for … in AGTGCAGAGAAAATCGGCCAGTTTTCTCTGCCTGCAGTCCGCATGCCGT…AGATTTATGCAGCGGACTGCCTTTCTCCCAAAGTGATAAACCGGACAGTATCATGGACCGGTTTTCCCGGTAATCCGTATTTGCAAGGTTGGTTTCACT; site = the 11-nt target;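 also: IS621 recombinase and bridge RNA in Escherichia coli cells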
ASSAY_ENDPOINT: recombinant barcode read abundance (log10)

SEQUENCE	QUANTITATIVE_RESULT
AGACTTCCTTGGGTTCTAACCTGTTGCTT (site AGACATCCTAA)	0.158
ATATGGGCTTGGGTTCTAACCTGTTGCCG (site ATATGGGCTCG)	1.52
GAGTCTTCTTGGGTTCTAACCTGTTGCCA (site GAGTCTTCTTG)	0.147
GAGGGTCCTTGGGTTCTAACCTGTTGCCT (site GAGGGTCCTAG)	2.56
AAGAAGCCTTGGGTTCTAACCTGTTGCCT (site CAGAAGCCTAG)	0.717
TAGAAGGCTTGGGTTCTAACCTGTTGCGT (site TAGAAGGCTAC)	2.75
CATTTCTCTTGGGTTCTAACCTGTTGCCT (site GATTTCTCTAG)	0.116
TGGCAGGCTTGGGTTCTAACCTGTTGCCT (site TGGCAGGCTAG)	0.64
GATTCTCCTTGGGTTCTAACCTGTTGCCT (site GATTCTCCTAG)	0.0773
GTCGTTACTTGGGTTCTAACCTGTTGCCT (site GTCGTTACTAG)	0.339
TAGGATACTTGGGTTCTAACCTGTTGCAT (site TAGGATACTCT)	0.583
TACATCCCTTGGGTTCTAACCTGTTGCCG (site TACATCCCTCG)	0.623
ACGTAATCTTGGGTTCTAACCTGTTGCTT (site ACGTAATCTAA)	0.207
TGGGTCCCTTGGGTTCTAACCTGTTGCGA (site TGGGTCCCTTC)	3

---

Reported recombinant barcode read abundance (log10) by item:
test: recombinant barcode read abundance after kanamycin selection (control-corrected) (log10(CPM+1)); higher = more efficient recombination; sequences stand for … in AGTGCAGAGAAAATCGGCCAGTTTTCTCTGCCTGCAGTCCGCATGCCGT…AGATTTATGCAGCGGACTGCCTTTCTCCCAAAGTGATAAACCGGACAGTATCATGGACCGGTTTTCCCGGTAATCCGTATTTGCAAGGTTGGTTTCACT; site = the 11-nt target
ASSAY_ENDPOINT: recombinant barcode read abundance (log10)

SEQUENCE	RESULT
TAGCCATCTTGGGTTCTAACCTGTTGCTC (site TAGACATCTGA)	0.0329
CTACGTACTTGGGTTCTAACCTGTTGCGT (site CTACGTACTAC)	0.051
GCCCCATCTTGGGTTCTAACCTGTTGCCT (site GCCCAATCTAG)	0.00703
TTATACACTTGGGTTCTAACCTGTTGCAG (site TTATACACTCT)	1.98
TAGGCGCCTTGGGTTCTAACCTGTTGCCT (site TAGGCGCCTAA)	0.173
AGCTTGCCTTGGGTTCTAACCTGTTGCAG (site AGCTTGCCTCT)	0.717
